Measured values drawn from PubChem BioAssay for this set.

# assay_name: plasmodial surface anion channel blockers, osmotic lysis – cell-based, P. falciparum Indochina, OD700, 1 h, primary screen (AID 1154)
# experimental_context: P. falciparum Indochina infected RBC osmotic lysis, higher = more signal, called active from +8 up or from −8 down
value_kind: z-score
Enter the number alone.

COc1ccccc1CN1C(=O)c2ccccc2[C@@]2(Cc3ccccc3N(C3CC3)C2=O)[C@@H]1c1ccc(CO)cc1 = 0.162
COc1cccc(C[C@H]2C[C@@H](CO[Si](C(C)C)(C(C)C)C(C)C)N3C(=O)[C@]4(C(C)=O)O[C@]23[C@H]2C(=O)N(C)C(=O)[C@H]24)c1 = 4.02
CCCC=C(CCC)[C@@H](NC(=O)Cc1ccccc1)c1ccc(C(=O)OC)cc1 = 1.19
C=C(/C(=C/C[C@@H](OC(=O)c1ccncc1)c1ccccc1OCCO)c1cnc2ccccc2c1)C(C)C = 10
CCCC[C@H]1OB(O)C[C@H]2C1=C(COc1ccccc1)Cn1c(=O)n(-c3ccccc3)c(=O)n12 = 2.14

Enquiry: Quick one: z-score for C=CCNC(=O)[C@H]1[C@@H]2C(=O)O[C@@H](c3ccccc3)[C@@H](c3ccccc3)N2[C@@H](c2ccc(O)cc2)[C@]12C(=O)N(C(=O)OCCOC)c1ccc(C#CC3(O)CCCCCC3)cc12 ?
Return: 0.842

Enquiry: Any idea what z-score was measured for C=C(/C(=C/C[C@@H](OC(C)=O)c1ccccc1OCCO)c1cnc2ccccc2c1)C(C)C ?
Return: 11.6

* * *

# assay_name: S. pombe growth modifiers, basal conditions – strain 972, OD600, 24 h, no modulator, primary screen (AID 1090);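 also: basal condition with compound alone and no growth modifier present; test concentration not given here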
# experimental_context: S. pombe 972 growth, higher = more signal, called active from +8 up or from −8 down
value_kind: z-score
Please give only the number in your answer, with no unit.

Completed entries (count: 3):
COCCCNC(=O)[C@]1(Cc2ccccc2)N=C(c2ccc(OCCCO)cc2)O[C@@H]1c1ccccc1N=[N+]=[N-] = -0.357
COCCOC(=O)N1C(=O)[C@@]2(c3cc(C#CCCO)ccc31)[C@H](c1ccc(OCCO)cc1)N1[C@H](c3ccccc3)[C@H](c3ccccc3)OC(=O)[C@H]1[C@@H]2C(=O)N1CCc2cc(OC)c(OC)cc2C1 = 1.28
COCCCNC(=O)[C@@]1(Cc2ccccc2)COC(c2ccc(OCCCO)cc2)=N1 = -1.98

Enquiry: Param item = C[N+](C)(C)CCCC[C@@H]1NC(=O)[C@@H]2C[C@H](C(=O)O)[C@H](c3cccc(OCCO)c3)N2C1=O ; retrieve measured z-score.
Return: -1.13

Enquiry: Which z-score value belongs to O=C1O[C@@H](c2ccccc2)[C@@H](c2ccccc2)N2[C@@H](c3ccc(O)cc3)[C@]3(C(=O)Nc4ccc(C#CC5(O)CCCCCC5)cc43)[C@@H](C(=O)N3CCN(c4ncccn4)CC3)[C@H]12 ?
Return: 0.37

Enquiry: I am curious: what z-score value has been reported for COC(=O)C(CC#Cc1ccc2c(c1)[C@]1(C(=O)N2)[C@H](c2ccccc2OCCO)N2[C@H](c3ccccc3)[C@H](c3ccccc3)OC(=O)[C@H]2[C@@H]1C(=O)Nc1nc2ccccc2s1)C(=O)OC ?
Return: 1.03

* * *

# Test system: Inhibin beta A chain (activin A)
# assay_name: small molecules binding activin A – biochemical, small-molecule microarray, 635 nm fluorescence scan, primary screen (AID 1107);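 also: mouse activin A protein probed at 4.33 µg/mL on printed slides; score merges bound-protein fluorescence near 667 nm with spot signal-to-noise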
# experimental_context: INHBA, higher = more signal
Would you please tag the item YES when its composite z-score is 0.6 or above, and NO when it is below?

Some entries whose results are on file:
COCCOC(=O)N1C(=O)[C@@]2(c3cc(C#CC4(O)CCCCCC4)ccc31)[C@H](C(=O)N1CCc3cc(OC)c(OC)cc3C1)[C@H]1C(=O)O[C@H](c3ccccc3)[C@H](c3ccccc3)N1[C@@H]2c1ccccc1OCCO = YES
C[N+](C)(C)CCCCNC(=O)[C@H]1C[C@H]2C(=O)NCC(=O)N2[C@H]1c1ccc(O)cc1 = YES
Cc1ccc(N2C(=O)c3ccccc3[C@](C)(C(=O)NC(C)C)[C@@H]2c2ccc(CO)cc2)nc1 = NO

Enquiry: hey, is composite z-score for this one >= 0.6? COCCOC(=O)N1C(=O)[C@@]2(c3cc(C#Cc4ccc(OC)cc4)ccc31)[C@H](C(=O)N1CCc3cc(OC)c(OC)cc3C1)[C@H]1C(=O)O[C@H](c3ccccc3)[C@H](c3ccccc3)N1[C@@H]2c1ccc(O)cc1
Return: YES

Enquiry: Threshold query (composite z-score >= 0.6) on COc1cc(C(O)C2C=CC3C(=O)NC(=O)C3N2Nc2ccc(Cl)cc2Cl)cc(OC)c1OC (stereo not given)
Return: YES

Enquiry: Textbook exercise: given the entry CC(C)CCC[C@@H](C)[C@H]1CC[C@@]2(C)C3=C(CC[C@]12C)[C@@]1(C)CC[C@H](OC(=O)c2ccc(N)cc2)C(C)(C)C1CC3 (stereo not given in full) , state whether its composite z-score is greater than or equal to 0.6.
Return: NO

Enquiry: Please check the record COc1cc(NN2C(C(O)c3ccc(I)cc3)C=CC3C(=O)N(C)C(=O)C32)cc(OC)c1OC (stereo not given) and state if its composite z-score is at or above 0.6.
Return: YES

Enquiry: I'd appreciate it if you could say whether CCCN1C(=O)[C@@]2(Cc3ccccc3)N=C(c3ccc(OCCCO)cc3)O[C@H]2c2ccccc21 has composite z-score at least equal to 0.6.
Return: YES
